- System: 454973-116-R2-J3-PDC complex spheroid viability;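 also: spheroids exposed to drugs for seven days before measurement; percent viability relative to DMSO vehicle control wells taken as 100%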
- protocolNotes: Anticancer human tumor 454973-116-R2-J3-PDC patient-derived pancreatic carcinoma cell line growth inhibition [POLQ]
- experimentalContext: second compound 3.16 µM; first compound 3.16 µM; stronger effect = lower value
- Experimental: Multicellular complex tumor spheroid response to Polymerase (POL) inhibitors (novobiocin, ART-558, RP6685) in combination with a variety of drugs and investigational agents in selected tumor cell lines The POL inhibitors (novobiocin, ART-558, and RP6685) were evaluated both individually and in combination with standard of care and investigational anticancer small molecules within a complex spheroid model of solid tumors. . […]

molecule | assaySystem | quantityUnit | viability, T/C
CCc1cc2c(N3CCc4c(cc(Cn5ccnc5)cc4-c4cn(C)nc4C(F)(F)F)C3=O)cc(C)nc2c(OC)n1 + COC1C(OC(N)=O)C(O)C(Oc2ccc3c(O)c(NC(=O)c4ccc(O)c(CC=C(C)C)c4)c(=O)oc3c2C)OC1(C)C | 454973-116-R2-J3-PDC complex spheroid viability | % | 85.9
COc1cccc2c1C(=O)c1c(O)c3c(c(O)c1C2=O)CC(O)(C(=O)CO)CC3OC1CC(N)C(O)C(C)O1 (centres undefined) + COC1C(OC(N)=O)C(O)C(Oc2ccc3c(O)c(NC(=O)c4ccc(O)c(CC=C(C)C)c4)c(=O)oc3c2C)OC1(C)C | 454973-116-R2-J3-PDC complex spheroid viability | % | 0.46
CC1COCCN1c1cc(-c2ccnn2C)c2ccnc(-c3ccn[nH]3)c2n1 (centres undefined) + COC1C(OC(N)=O)C(O)C(Oc2ccc3c(O)c(NC(=O)c4ccc(O)c(CC=C(C)C)c4)c(=O)oc3c2C)OC1(C)C | 454973-116-R2-J3-PDC complex spheroid viability | % | 26.1
CC1COCCN1c1cc(C2(S(C)(=N)=O)CC2)nc(-c2ccnc3[nH]ccc23)n1 (centres undefined) + Nc1ccc(C#CCN(C(=O)Cc2ncc(C(F)(F)F)cc2C(F)(F)F)c2ccc(F)cc2)nn1 | 454973-116-R2-J3-PDC complex spheroid viability | % | 59.9
CC1COCCN1c1cc(C2(O)CC3CCC(C2)O3)c2cnn(-c3ccn[nH]3)c2n1 (centres undefined) + COC1C(OC(N)=O)C(O)C(Oc2ccc3c(O)c(NC(=O)c4ccc(O)c(CC=C(C)C)c4)c(=O)oc3c2C)OC1(C)C | 454973-116-R2-J3-PDC complex spheroid viability | % | 24.1
C=CC(=O)N1CCN(c2nc(=O)n(-c3c(C)ccnc3C(C)C)c3nc(-c4c(O)cccc4F)c(F)cc23)C(C)C1 (centres undefined) + Cc1cccc(N(C)C(=O)C2C(O)CCN2c2nc(C)cc(C(F)(F)F)c2C#N)c1 | 454973-116-R2-J3-PDC complex spheroid viability | % | 112
CCc1cc2c(N3CCc4c(cc(Cn5ccnc5)cc4-c4cn(C)nc4C(F)(F)F)C3=O)cc(C)nc2c(OC)n1 + Cc1cccc(N(C)C(=O)C2C(O)CCN2c2nc(C)cc(C(F)(F)F)c2C#N)c1 | 454973-116-R2-J3-PDC complex spheroid viability | % | 74.4
COc1cc2cc(C(=O)CCC(=O)O)sc2cc1OC + Cc1cccc(N(C)C(=O)C2C(O)CCN2c2nc(C)cc(C(F)(F)F)c2C#N)c1 | 454973-116-R2-J3-PDC complex spheroid viability | % | 98.9
O=C(Nc1ccc(O)c(NS(=O)(=O)c2ccc(F)cc2)c1)c1ccc(-c2ccccc2)cc1 + Nc1ccc(C#CCN(C(=O)Cc2ncc(C(F)(F)F)cc2C(F)(F)F)c2ccc(F)cc2)nn1 | 454973-116-R2-J3-PDC complex spheroid viability | % | 123
COc1cc(C2c3cc4c(cc3C(OC3OC5COC(C)OC5C(O)C3O)C3COC(=O)C23)OCO4)cc(OC)c1O (centres undefined) + Nc1ccc(C#CCN(C(=O)Cc2ncc(C(F)(F)F)cc2C(F)(F)F)c2ccc(F)cc2)nn1 | 454973-116-R2-J3-PDC complex spheroid viability | % | 12.3
CC1COCCN1c1cc(C2(O)CC3CCC(C2)O3)c2cnn(-c3ccn[nH]3)c2n1 (centres undefined) + Nc1ccc(C#CCN(C(=O)Cc2ncc(C(F)(F)F)cc2C(F)(F)F)c2ccc(F)cc2)nn1 | 454973-116-R2-J3-PDC complex spheroid viability | % | 15.2
CC1COCCN1c1cc(C2(S(C)(=N)=O)CC2)nc(-c2ccnc3[nH]ccc23)n1 (centres undefined) + Cc1cccc(N(C)C(=O)C2C(O)CCN2c2nc(C)cc(C(F)(F)F)c2C#N)c1 | 454973-116-R2-J3-PDC complex spheroid viability | % | 80.8
CC(C)n1c(=O)n(C)c2cnc3cc(F)c(-c4ccc(OCCCN5CCCCC5)nc4)cc3c21 + Nc1ccc(C#CCN(C(=O)Cc2ncc(C(F)(F)F)cc2C(F)(F)F)c2ccc(F)cc2)nn1 | 454973-116-R2-J3-PDC complex spheroid viability | % | 101
CCCS(=O)(=O)Nc1ccc(F)c(C(=O)c2c[nH]c3ncc(-c4ccc(Cl)cc4)cc23)c1F + Cc1cccc(N(C)C(=O)C2C(O)CCN2c2nc(C)cc(C(F)(F)F)c2C#N)c1 | 454973-116-R2-J3-PDC complex spheroid viability | % | 115
